# assayed system: MAGI2_3, Q86UL8
# Sequence (Q86UL8 600-682): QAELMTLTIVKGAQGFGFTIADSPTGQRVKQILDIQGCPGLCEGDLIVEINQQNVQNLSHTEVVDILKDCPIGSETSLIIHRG
# assay comment: holdup assay
# Design: key: below the threshold = too weak to quantify, mostly under pKd 3.1 to 4
# experimental context: plain residues with an end cap or a label only (N-terminal biotin on a linker: ado-ado)
quantity measured: pKd

[[record]]
binder = "RGKNRRQSIF [CDK18, Q07002]"
quantity_measured = "pKd"
result = 3.64

[[record]]
binder = "HYPASPDSWV [CTNND2, Q9UQB3]"
quantity_measured = "pKd"
result = 3.58

[[record]]
binder = "GNDPDRGTSI [GRID2, O43424]"
quantity_measured = "pKd"
result = "below the threshold"

[[record]]
binder = "HLSTRQGTCV [ATRNL1, Q5VV63]"
quantity_measured = "pKd"
result = "below the threshold"

[[record]]
binder = "PAALPESTHM [SLC9A3, P48764]"
quantity_measured = "pKd"
result = "below the threshold"

[[record]]
binder = "QQGLLPHSSC [TYRO3, Q06418]"
quantity_measured = "pKd"
result = "below the threshold"

[[record]]
binder = "KSRPENGTVC [TMEM178B, H3BS89]"
quantity_measured = "pKd"
result = "below the threshold"

[[record]]
binder = "PALKNGQYWV [CSPG4, Q6UVK1]"
quantity_measured = "pKd"
result = "below the threshold"

